Overview of recorded pIC50 for various binders
- testedSystem: full-length beta-Catenin (Uniprot ID P35222) (Homo sapiens (Human)) (UniProt P35222)
- Sequence (P35222 2-781 limits assumed): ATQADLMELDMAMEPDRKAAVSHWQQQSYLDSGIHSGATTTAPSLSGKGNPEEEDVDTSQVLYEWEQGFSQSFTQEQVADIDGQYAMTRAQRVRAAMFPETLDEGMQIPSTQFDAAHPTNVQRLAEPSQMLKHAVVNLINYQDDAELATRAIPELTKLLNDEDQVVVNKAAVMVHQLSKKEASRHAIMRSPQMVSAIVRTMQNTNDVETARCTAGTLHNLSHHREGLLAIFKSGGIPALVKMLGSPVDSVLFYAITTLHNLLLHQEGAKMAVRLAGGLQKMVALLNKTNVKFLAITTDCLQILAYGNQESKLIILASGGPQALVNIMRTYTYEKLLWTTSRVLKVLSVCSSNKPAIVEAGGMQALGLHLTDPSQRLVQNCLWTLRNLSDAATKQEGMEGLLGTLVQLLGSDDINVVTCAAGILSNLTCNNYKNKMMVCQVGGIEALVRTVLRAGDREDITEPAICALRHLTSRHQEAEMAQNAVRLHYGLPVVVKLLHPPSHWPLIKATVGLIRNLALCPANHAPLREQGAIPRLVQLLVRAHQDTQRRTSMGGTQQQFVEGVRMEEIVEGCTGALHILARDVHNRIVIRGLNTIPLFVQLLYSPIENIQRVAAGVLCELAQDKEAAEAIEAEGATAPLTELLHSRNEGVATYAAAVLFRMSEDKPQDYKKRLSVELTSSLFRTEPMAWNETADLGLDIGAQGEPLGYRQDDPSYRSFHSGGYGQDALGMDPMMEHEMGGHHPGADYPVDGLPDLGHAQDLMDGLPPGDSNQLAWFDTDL
- testProtocol: fluorescence polarization competition; 10 nM full-length beta-catenin + 10 nM 5FAM-TCF4(10-53) as competitor probe; peptide titrated
pIC50: −log10 of the molar value. Starred links: 1 amine or outer side, 2 acyl side, 3 side chain; linkers in the order of their positions; H or OH if unused. Positions of bridges follow the written chain, without caps; N, C: chain ends. Non-standard residues stand in square brackets, D forms with d. (EtSSpy)AspE = (S)-2-amino-4-oxo-4-(2-(pyridin-2-yldisulfaneyl)ethoxy)butanoic acid, O=C(C[C@H](N[*:1])C(=O)[*:2])OCCSSc1ccccn1; PyrS2 = (S)-3-amino-1-((pent-4-en-1-yloxy)carbonyl)pyrrolidine-3-carboxylic acid, C=CCCCOC(=O)N1CC[C@@](N[*:1])(C(=O)[*:2])C1; AspSH = (S)-2-amino-4-mercapto-4-oxobutanoic acid, O=C(C[C@H](N[*:1])C(=O)[*:2])S[*:3]; B5 = 2-amino-2-(pent-4-en-1-yl)hept-6-enoic acid, C=CCCCC(CCCC=C)(N[*:1])C(=O)[*:2]; Phe(2-Cl) = N[C@@H](Cc1ccccc1Cl)C(=O)O; Bta = N[C@@H](Cc1csc2ccccc12)C(=O)O; αAllylPro = C=CC[C@@]1(C(=O)O)CCCN1; tBuAla = CC(C)(C)C[C@H](N)C(=O)O

{"columns": ["binder", "pIC50"],
 "data": [
  ["Ac-[αAllylPro][(EtSSpy)AspE][tBuAla][B5]DDAAFN[PyrS2][Phe(2-Cl)][Bta]Q-NH2 (staple 1-4, 4-11; not fully specified) [I-1724]", 6.26],
  ["Ac-[αAllylPro][AspSH][tBuAla][B5]DDAAFN[PyrS2][Phe(2-Cl)][Bta]Q-NH2 (staple 1-4, 4-11; not fully specified) [I-1722]", 6.87]
]}
